Here, each record is paired with measured growth data.
System: MDA-MB-435 melanoma
Assay: NCI-60 one-dose screen, 48 h (100 = growth as untreated, 0 = no growth, -100 = all killed)
Conditions: 10 µM unless noted
Procedure: Growth inhibition of the MDA-MB-435 human Melanoma tumor cell line is measured as a screen for anti-cancer activity. Cells are grown in 96 well plates and exposed to the test compound for 48 hours. Compounds are tested at a single concentration, which is 10^-5 M for most compounds. The reported endpoint is percent growth (GI% or GIPRCNT), where numbers from 0 - 100% represent growth inhibition, and numbers from -100% - 0 represent cell death. […]
Compounds without any hit were thinned out: in the full panel of roughly 83,000, 20% have a hit.
endpointLabel: growth (%)

# compound, endpointLabel, reportedResult
measured = [
    ("Cc1nc2sc(C(=O)Nc3cccc(Br)c3C)c(N)c2cc1C(O)c1ccccc1 (stereo not given)", "growth", 3.98),
    ("CCCCCN(CCCCC)CC(O)c1cc(C)c2ccc3cc(C(C)C)ccc3c2c1 (stereo not given)", "growth", 0.846),
    ("COc1cc(OC)c2sc(-c3ccc(-n4cncc4-c4cc(OC)c(OC)c(OC)c4)cc3)nc2c1", "growth", 35.2),
    ("CCN1C(=O)N(CC)C2C1NN=c1s/c(=C\\c3cnc(C)n3C)c(=O)n12 (stereo not given)", "growth", -69.1),
    ("COc1cccc(/C=C/C(=O)c2cccc(Nc3nc(Nc4ccccc4)nc(Nc4ccccc4)n3)c2)c1", "growth", 91.4),
    ("Cc1ccc(/C=C/C(=O)Nc2ncc(Cc3ccc(F)cc3)s2)o1", "growth", -25.9),
    ("O=C1C(Nc2ccccn2)=C(I)C(=O)c2ncccc21", "growth", -82.2),
    ("CCN1C(=O)N(CC)C2C1NC(=S)N2/N=C/c1ccc(C(F)(F)F)cc1 (stereo not given)", "growth", 4.45),
    ("CCOC(=O)c1c(C)nc2ccccc2c1/C=C/c1ccccc1", "growth", 70.2),
    ("C#CC#CC#CC#CC#CC#CC#CC#CC[C@@H]1OC[C@@H](COC(=O)O[C@@H](C(=O)O[C@H]2C[C@@]3(O)[C@@H](OC(=O)c4ccccc4)[C@@H]4[C@]5(OC(C)=O)CO[C@@H]5C[C@H](O)[C@@]4(C)C(=O)[C@H](OC(C)=O)C(=C2C)C3(C)C)[C@@H](NC(=O)c2ccccc2)c2ccccc2)O1", "growth", 101),
]
